tested on: NCI-H226 lung; test: NCI tumour cell line growth inhibition, 48 h
Listing of recorded GI50 by entry.

{"columns": ["COMPOUND", "SUBJECT_OF_TEST", "GI50"],
 "data": [
  ["NCCN1CCN(c2nccc(-c3ccc4ccccc4c3)n2)CC1", "NCI-H226 lung", "2.03 µM"],
  ["O=C(Nc1cc(-c2ccccc2)[nH]n1)c1ccc(Cl)cc1", "NCI-H226 lung", "56.7 µM"],
  ["COc1ccc2c(c1)C=CC(C#N)N2C(=O)c1ccccc1 (stereo unspecified)", "NCI-H226 lung", "4.16 µM"],
  ["C=CC(=O)Nc1cccc(Nc2nc(Nc3ccc(OCCOC)cc3)ncc2F)c1", "NCI-H226 lung", "0.914 µM"],
  ["C[C@H]1CCC/C=C/[C@@H]2C[C@H](N)C[C@H]2[C@H](O)/C=C/C(=O)O1", "NCI-H226 lung", "> 100 µM"],
  ["CCCCCCNc1nc(NCCCCCC)c2[nH]c(NCCCCCC)nc2n1", "NCI-H226 lung", "15.4 µM"],
  ["O=P(O)(O)C(O)(Cn1ccnc1)P(=O)(O)O", "NCI-H226 lung", "> 75 µM"],
  ["C=CCOc1c(Br)cc(Br)cc1Br", "NCI-H226 lung", "24.8 µM"],
  ["CC(=O)[CH-]C(C)=O.CC(=O)[CH-]C(C)=O.N=CC=N.[Sn+2]", "NCI-H226 lung", "9.9 µM"],
  ["COc1cc(/C=C2\\CC3C4CC=C5CC(N6CCCC6)CC[C@]5(C)C4CC[C@]3(C)C2OC(C)=O)ccc1OCCN1CCCC1 (stereo partly specified)", "NCI-H226 lung", "3.19 µM"],
  ["O=C1c2c(c3c4ccc(Br)cc4oc3c3[nH]c4ccccc4c23)C(=O)N1O", "NCI-H226 lung", "2.34 µM"],
  ["O=C1c2ccccc2-c2c1c1ccccc1c(=O)n2CCNCCCNCCn1c2c(c3ccccc3c1=O)C(=O)c1ccccc1-2", "NCI-H226 lung", "0.64 µM"],
  ["COC(=O)C(Cc1ccccc1)N/C=C\\C(=O)c1ccc(Cl)cc1 (stereo unspecified)", "NCI-H226 lung", "26 µM"],
  ["CCCNCc1cc(C)cc2c1nc(N1CCNCC1)n2Cc1cc(C)c(F)c(C)c1", "NCI-H226 lung", "19.1 µM"],
  ["COC(=O)c1c(O)ccc2[nH]c(C)c(C#N)c12", "NCI-H226 lung", "28.5 µM"],
  ["CCN(CCO)CCNc1ccc(C)c2sc3cc(Cl)ccc3c(=O)c12", "NCI-H226 lung", "1.39 µM"]
]}

* * *

system: MOLT-4 leukemia; test: NCI tumour cell line growth inhibition, 48 h
MEASUREMENT_NAME: TGI

{"columns": ["COMPOUND", "RESULT"],
 "data": [
  ["COc1ccc(CN2C(=O)C(=O)N(C)C2=O)c2ccccc12", "> 10 µM"],
  ["O=c1c2cc3c(=O)n(CCc4ccccc4CO)c(=O)c3cc2c(=O)n1CCc1ccccc1CO", "> 100 µM"],
  ["CC(C)(C)C1(O)Cc2ccccc2C(=O)O1 (stereo not drawn)", "> 100 µM"]
]}

* * *

Listing of recorded TGI by entry.
test system: OVCAR-3 ovarian; experiment: NCI tumour cell line growth inhibition, 48 h
MEASUREMENT_NAME: TGI

{"columns": ["COMPOUND", "MEASUREMENT_NAME", "RESULT"],
 "data": [
  ["CC1CCCC(C(=O)/C(=C/c2cccc(Cl)c2)C(=O)C(=O)O)C1 (stereo not drawn)", "TGI", "55.4 µM"],
  ["CC1(C)[C@@H]2C[C@H]1c1cnc(-c3ccccn3)cc1[C@H]2C(O)[C@@H]1c2cc(-c3ccccn3)ncc2[C@H]2C[C@@H]1C2(C)C (stereo partly drawn)", "TGI", "1.77 µM"],
  ["COc1cc2nc(-c3c(F)cccc3F)n(Cc3c(F)cccc3F)c2cc1Cc1c(F)cccc1F", "TGI", "> 100 µM"],
  ["Nc1nc(Nc2ccc(OCc3cccc(F)c3)cc2)c2c(n1)[nH]c1ccc(O)cc12", "TGI", "3.46 µM"],
  ["Clc1cccc(C2ON=C(c3ccccc3)N2C23CC4CC(CC(C4)C2)C3)c1Cl (stereo not drawn)", "TGI", "> 10 µM"],
  ["COc1cc2c3c(n(C)c(=O)c2cc1OC)-c1cc2c(cc1/C3=C/CCCCBr)OCO2", "TGI", "> 100 µM"],
  ["COc1ccccc1C(=O)c1ccc2ccccc2c1", "TGI", "39.6 µM"],
  ["CCOC(=O)C(NC(=O)c1ccc(N=NN(C)C)cc1)C(C)C (stereo not drawn)", "TGI", "> 100 µM"],
  ["CCCS(=O)(=O)c1nc(NC2CC2)cc(-c2ccc3c(ccn3C3CC(C)(C)NC(C)(C)C3)c2)n1", "TGI", "3.42 µM"],
  ["CC12CCC(C/C1=N\\NC(N)=O)C2(C)C (stereo not drawn)", "TGI", "> 100 µM"],
  ["O=P(O)(O)C(O)(Cn1ccnc1)P(=O)(O)O", "TGI", "> 100 µM"],
  ["Cc1ccc2c(c1)C(=O)/C(=C\\c1ccc(Cl)cc1)CCS2(=O)=O", "TGI", "19.5 µM"],
  ["CS(=O)(=O)Nc1ccc(-c2ccc3c(NC(=O)C4CC4)n[nH]c3c2)cc1", "TGI", "> 25 µM"],
  ["Cc1ccc([N+](=O)[O-])c2c(NCCCN(C)C)ccnc12", "TGI", "> 93.1 µM"],
  ["COc1ccc2c(c1)[C@@]13CCN4CC5=CCO[C@H]6CC(=O)N2[C@H]1[C@H]6[C@H]5C[C@H]43", "TGI", "> 100 µM"],
  ["Nc1ccc(SC23CC4CC(CC(C4)C2)C3)cc1", "TGI", "> 100 µM"],
  ["C[C@@H]1C(=O)CC2(O)[C@@]13C[C@@H](OC(=O)[C@@H]3O)[C@@H](C)[C@@]21COC1=O (stereo partly drawn)", "TGI", "> 100 µM"],
  ["Oc1c2c(c(O)c3ccccc13)=N[C@@H](c1ccccc1)[C@H](c1ccccc1)N=2", "TGI", "> 100 µM"],
  ["Cc1noc(C)c1-c1ccc2[nH]c(=O)n3c2c1OC[C@@H]3c1ccccn1", "TGI", "> 100 µM"],
  ["COc1cc2c3c(n(CCCN4CCC(N)CC4)c(=O)c2cc1OC)-c1cc2c(cc1C3=O)OCO2", "TGI", "1.9 µM"],
  ["O=C1N[C@@H](O)[C@@H]2ON=C(c3ccccc3)[C@H]12", "TGI", "> 100 µM"],
  ["O=C(N/N=C/c1ccc(Cl)cc1Cl)c1ccccc1Nc1cccc(C(F)(F)F)c1", "TGI", "8.03 µM"],
  ["COc1ccc(C(=O)C(C(=O)CCC(=O)Nc2cccc(C(F)(F)F)c2)c2ccccc2)cc1 (stereo not drawn)", "TGI", "> 100 µM"],
  ["NC(=O)NC(=NCc1ccccc1)NCc1ccccc1", "TGI", "> 100 µM"],
  ["COC(=O)C(CCSC)NC(=O)CSc1nnc(COc2ccc(Cl)cc2)n1-c1ccccc1 (stereo not drawn)", "TGI", "5.37 µM"],
  ["Cc1cc(C)nc(NS(=O)(=O)c2ccc(Nc3c4ccccc4nc4c(C(=O)N5CCN(CCOS(C)(=O)=O)CC5)ccc(Cl)c34)cc2)n1", "TGI", "> 100 µM"],
  ["O=c1c2ccccc2c2c3c1cccc3c1cccc3c(=O)c4ccccc4c2c31", "TGI", "> 100 µM"],
  ["CC1(C)CCc2cc3c(cc2O1)OCCC3=O", "TGI", "> 100 µM"],
  ["COc1ccc(N2C(=O)C3c4[nH]c5ccccc5c4C4C(C)CCCC4C3C2=O)cc1 (stereo not drawn)", "TGI", "> 100 µM"],
  ["COc1ccc(CCCCl)c(C2=NCCc3ccccc32)c1", "TGI", "> 100 µM"],
  ["O=C(c1ccccc1)[C@H]1Nc2cnccc2C2c3ccccc3CC21 (stereo partly drawn)", "TGI", "29.7 µM"],
  ["COc1ccc(NC2=C(Br)C(=O)C(C)=C(C)C2=O)cc1", "TGI", "3.13 µM"],
  ["COc1cc(-c2c3c(cc4c2OCO4)[C@@H](Nc2ccc4c(c2)Cc2cc(N[C@@H]5c6cc7c(cc6C(c6cc(OC)c(O)c(OC)c6)[C@H]6C(=O)OC[C@H]56)OCO7)ccc2-4)[C@H]2COC(=O)[C@@H]2C3)cc(OC)c1O (stereo partly drawn)", "TGI", "> 100 µM"]
]}

* * *

Listing of recorded GI50 by entry.
tested on: OVCAR-8 ovarian; assay: NCI tumour cell line growth inhibition, 48 h
MEASUREMENT_NAME: GI50

{"columns": ["COMPOUND", "RESULT"],
 "data": [
  ["Oc1ccc(Cc2ccccc2)c2cccnc12", "2.35 µM"],
  ["Cc1sc(C)c(-c2ccc(CO)o2)c1-c1ccc(CO)o1", "75.4 µM"],
  ["CC(=O)[CH-]C(C)=O.CC(=O)[CH-]C(C)=O.N=CC=N.[Sn+2]", "2.11 µM"],
  ["CC(=O)n1c(-c2ccc(Cl)cc2)nc2c(c1=O)C(c1ccc(Cl)cc1)c1sc3c(Cl)cccc3c1O2 (centres undefined)", "0.626 µM"]
]}
